assay: Antioxidant activity assessed as ferric ion reducing activity using fe3+-TPTZ measured per gram of protein by FRAP assay; format: functional
Exercise: for every item that follows, state its recorded Activity.
One number for each entry, in µmol.

# compound.structure.string, Activity (µmol)
records = [
    ("O=C(CCCOc1ccc2ccc(=O)oc2c1)N1CCN(c2ccc(Cl)c(Cl)c2)CC1", 0.78),
    ("O=C(COc1ccc2ccc(=O)oc2c1)N1CCC(Cc2ccccc2)CC1", 0.05),
    ("O=C(CCCOc1ccc2ccc(=O)oc2c1)N1CCN(c2ccccc2)CC1", 1.13),
    ("O=c1c(O)c(-c2ccc(O)c(O)c2)oc2cc(O)cc(O)c12", 10.8),
]

Kindly consider the entry below.
*Q* I am curious: what Activity value has been reported for Cc1cc(=O)oc2cc(OCCCC(=O)N3CCN(c4ccc(Cl)c(Cl)c4)CC3)ccc12 ?
*A* 0.05

====

Hi there, I'd appreciate the recorded pIC50 for every entry that follows.
molecular target: Acetylcholinesterase (Electrophorus electricus)
Sequence (O42275 whole entry): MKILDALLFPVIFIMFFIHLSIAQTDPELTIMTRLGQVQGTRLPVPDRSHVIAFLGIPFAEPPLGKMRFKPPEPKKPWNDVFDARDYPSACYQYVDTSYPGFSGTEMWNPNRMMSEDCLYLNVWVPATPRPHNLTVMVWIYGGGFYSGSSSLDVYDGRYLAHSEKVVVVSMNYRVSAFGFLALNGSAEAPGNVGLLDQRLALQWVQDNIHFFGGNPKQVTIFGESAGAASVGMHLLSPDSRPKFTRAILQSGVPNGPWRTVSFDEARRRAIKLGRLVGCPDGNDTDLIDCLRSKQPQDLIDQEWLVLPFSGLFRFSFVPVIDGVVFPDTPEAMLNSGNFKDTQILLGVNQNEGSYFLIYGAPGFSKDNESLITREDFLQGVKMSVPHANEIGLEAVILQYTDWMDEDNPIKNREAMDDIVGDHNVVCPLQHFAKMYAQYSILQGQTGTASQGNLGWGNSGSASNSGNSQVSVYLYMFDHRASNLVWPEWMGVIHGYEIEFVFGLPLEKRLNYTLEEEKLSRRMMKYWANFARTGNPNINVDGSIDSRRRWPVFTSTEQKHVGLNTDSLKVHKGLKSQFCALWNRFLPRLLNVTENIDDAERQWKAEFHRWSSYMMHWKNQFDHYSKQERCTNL
Numbers only, as −log10 of the molar value.

# compound.structure.string, pIC50
data = [
    ("Cc1cc(=O)oc2cc(OCCCC(=O)N3CCC(O)(c4ccc(Br)cc4)CC3)ccc12", 4.46),
    ("O=C(CCCOc1ccc2ccc(=O)oc2c1)N1CCN(c2ccc(F)cc2)CC1", 4.30),
    ("O=C(CCCOc1ccc2ccc(=O)oc2c1)N1CCN(c2ccc(Cl)c(Cl)c2)CC1", 4.59),
    ("O=C(COc1ccc2ccc(=O)oc2c1)N1CCN(c2ccccc2F)CC1", 4.46),
    ("O=C(CCCOc1ccc2ccc(=O)oc2c1)N1CCN(c2ccccc2)CC1", 5.46),
    ("Cc1cc(=O)oc2cc(OCCCC(=O)N3CCN(c4ccc(Cl)c(Cl)c4)CC3)ccc12", 5.36),
]

Hey, quick one: what's pIC50 for each of these?
1. Cc1cc(=O)oc2cc(OCCCC(=O)N3CCN(c4ccc(F)cc4)CC3)ccc12
2. O=C(CCCOc1ccc2ccc(=O)oc2c1)N1CCC(Cc2ccccc2)CC1
3. O=C(COc1ccc2ccc(=O)oc2c1)NC1CCN(Cc2ccccc2)CC1
4. Cc1cc(=O)oc2cc(OCCCC(=O)N3CCN(c4ccccc4O)CC3)ccc12
5. O=C(COc1ccc2ccc(=O)oc2c1)N1CCN(c2ccccc2)CC1
6. O=C(CCCOc1ccc2ccc(=O)oc2c1)N1CCN(c2ccccc2O)CC1
7. O=C(CCCOc1ccc2ccc(=O)oc2c1)N1CCN(c2ccccc2F)CC1
8. O=C(COc1ccc2ccc(=O)oc2c1)N1CCC(Cc2ccccc2)CC1

*A*
1: 4.38; 2: 5.16; 3: 5.80; 4: 5.21; 5: 4.48; 6: 5.15; 7: 5.16; 8: 5.01

# map each compound to its pIC50
1. Cc1cc(=O)oc2cc(OCCCC(=O)N3CCN(c4ccccc4F)CC3)ccc12
2. O=C(CCCOc1ccc2ccc(=O)oc2c1)N1CCC(O)(c2ccc(Br)cc2)CC1
3. O=C(COc1ccc2ccc(=O)oc2c1)N1CCN(c2ccc(Cl)c(Cl)c2)CC1
4. Cc1cc(=O)oc2cc(OCCCC(=O)N3CCN(c4ccccc4)CC3)ccc12
5. COc1ccc(CCNC(=O)COc2ccc3ccc(=O)oc3c2)cc1OC

*A*
[4.79, 4.14, 4.57, 4.68, 4.13]
